Catalogue of log10 Kd readings, one per entry.
TARGET OR TEST SYSTEM: P-selectin (PS-Rg) (Homo sapiens, UniProt P16109 P16109:42-321)
Sequence (P16109 42-321, one chain of several): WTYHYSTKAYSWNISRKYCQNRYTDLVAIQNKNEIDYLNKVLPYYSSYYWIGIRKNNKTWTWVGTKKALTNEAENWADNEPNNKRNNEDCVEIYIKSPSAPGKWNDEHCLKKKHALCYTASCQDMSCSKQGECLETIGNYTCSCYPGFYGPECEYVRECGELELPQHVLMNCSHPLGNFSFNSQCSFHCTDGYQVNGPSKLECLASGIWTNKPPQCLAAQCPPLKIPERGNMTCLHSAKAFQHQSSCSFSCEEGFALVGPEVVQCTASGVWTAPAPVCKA
PROCEDURE DETAILS: filter; HSMC
CONDITION DETAILS: tags: human IgG Fc fusion; chain copies: 2 (stated dimer)
Heads up, the numbers here are log10 of Kd in nM units.

Some binders with known log10 Kd results, for comparison:
INSERT INTO results (binder, reported) VALUES
  ('CUCAACGAGCCAGGAACAUCGACGUCAGCAAACGCGAG (ssRNA, 2''-F C and U, biotin) [PF377s1B]', -1.19),
  ('CUCAACGAGCCAGGAACAUCGACGUCAGCAAACGCGAG (ssRNA, 2''-F C and U; 2''-OMe G 7,9,13,14,21,24,28,36 and A 8,15,18,22,27,30,31,37 as listed) [PF377M4]', 0.23),
  ('CGCUCAACGAGCCAGGAACAUCGACGUCAGCAAACGCGAGCG (ssRNA, 2''-F C and U) [PF377s2]', -1.35),
  ('CUCAACGAGCCAGGAACAUCGACGUCAGCAAACGCGAG (ssRNA, 2''-F C and U; 2''-OMe G7 G9 G14 G21 A8 A15 A18 A22 A27 A31) [PF377M1]', -0.92),
  ('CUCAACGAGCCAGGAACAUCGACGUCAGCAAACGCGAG (ssRNA, 2''-F C and U; 2''-OMe G 7,9,14,21,36 and A 8,15,18,22,27,31,37 as listed) [PF377M3]', -0.05);

Now for another entry.
Ask: Find the recorded log10 Kd belonging to CACUCAACCGGCACCAGACUACGAUCAGCAUUGGCGAGUG (ssRNA, 2'-F C and U) [PF416s2] and report it.
Reply: -0.82
